test system: Mus musculus; assay: Retention for passive avoidance learning in mice at dose 2.5 mg/kg; format: functional, organism-based; design: dose 2.5 mg/kg
hey, just use criterion met if measured Retention is less than 70%, otherwise criterion not met

The following compounds have reported results that may help.
• CC(N)Cc1ccccc1 (centres undefined) = criterion not met
• CN1C(=O)CN=C(c2ccccc2)c2cc(Cl)ccc21 = criterion met
• Fc1cccc(Oc2cccnc2)c1 = criterion not met

// query Quick check: does [O-][n+]1cccc(Oc2cccnc2)c1 have Retention under 70%?
// result criterion met

// query In the record for [O-][n+]1cccc(Oc2ccc[n+]([O-])c2)c1 , is Retention less than 70%?
// result criterion met

// query Field: below-cutoff. Rule: recorded Retention strictly less than 70%. Subject: C=C(C)[C@@H]1[C@H]2OC(=O)[C@@H]1[C@]1(O)C[C@H]3OC34C(=O)O[C@H]2[C@@]41C.CC(C)(O)[C@@H]1[C@H]2OC(=O)[C@@H]1[C@]1(O)C[C@H]3OC34C(=O)O[C@H]2[C@@]41C (some centres undefined)
// result criterion not met

// query Retention under 70%? Item: Fc1ccc(Oc2cccnc2)cc1
// result criterion not met
